This section presents compounds with their documented melting point values.
measurementLabel: melting point (°C)

smilesRepr	valueComparator	recordedValue
CCOc1c(CCl)c(CCl)c(OCC)c2ccccc12	=	110
Nn1nc(-c2ccc(Cl)cc2)cc1OCCN1CCCC1	=	131
CC(C)(Cl)C(=O)c1ccc(C(Br)c2ccc(C(=O)C(C)(C)Cl)cc2)cc1	=	93
CC(C)NC1=NS(=O)(=O)c2ccc(S(C)(=O)=O)cc2N1	>	300
Cc1cc(OCCc2nc(-c3ccccc3)oc2C)ccc1OCC(=O)O	=	133

----------
This section presents molecules with their documented melting point values.

molecule	melting point
O=C(O)Cc1cccc2c(-c3ccc(Cl)cc3)noc12	110 to 125 °C
O=C(O)c1ccc(NCCc2cccs2)cc1	161 to 163 °C
O=C(O)c1nn(-c2ccc(Cl)cc2Cl)c(-c2ccc(Cl)cc2)c1Br	222 to 224 °C
CC1(C)CC(C)(C)c2cc(Cl)c(O)cc21	52 °C
O=C(c1cc([N+](=O)[O-])cc(C(F)(F)F)c1)N1CCC1	91 °C
CC(=O)N1N=C(C=Cc2ccc([N+](=O)[O-])cc2)c2cc3c(cc2CC1C)OCO3 (configuration not stated)	188 to 190 °C
COc1cc(CSCCNC(=O)c2c(Cl)cccc2Cl)cc(OC)c1	46 to 47 °C
O=C(NNc1ccccc1Cl)c1c(F)cccc1Cl	156 to 158 °C
CCn1cc(C(=O)NCc2ccc(Cl)cc2)c(=O)c2cc(C#CCO)sc21	217 to 219 °C
CN(C)CCC(=O)OC1c2ccccc2C(=O)N1c1ccc2ccc(Cl)nc2n1 (configuration not stated)	150 °C
CC(C)c1nc(C(C)C)c(CN2CCN(c3ccccc3)CC2)c(-c2ccc(F)cc2)c1CO	111 to 113 °C
CCCC12CCC(=O)C=C1c1c(cc(OC)c(Cl)c1Cl)C2=O (configuration not stated)	167 to 169 °C
CCc1nnc(SCC2=C(C(=O)O)N3C(=O)C(NC(=O)Cc4csc(=O)s4)C3SC2)s1 (configuration not stated)	155 °C
O=[N+]([O-])c1nccn1C1CCCC1O (configuration not stated)	109 °C
CCCCCCC(=NO)C(=O)c1ccc(OC)c2ccccc12	92 to 93 °C
CCCc1c2c(c(C(C)(C)C)c(OC(C)=O)c1C(C)(C)C)CC(C)(C)O2	106 °C
COc1cccc2c(=O)c3c(O)cc(OCC(S)CCl)cc3oc12 (configuration not stated)	125 °C
N#Cc1c(OCCN2CCOCC2)cccc1Oc1ccc(-c2cn(C3CCOCC3)c3ncnc(N)c23)cc1	110 °C
CSc1nc(N)n(C(=O)c2ccc(Cl)cc2)n1	175 to 177 °C
CC(C)(C)c1ccc(/C=N/OCCCOc2ccc(C(=O)O)c(NC(=O)c3ccccc3C(F)(F)F)c2)cc1	121 to 122 °C
O=Cc1ccc(O)c(NC(=O)CCl)c1	190 to 192 °C
Cn1c2ccccc2c2cccc(N)c21	90 to 92 °C
c1ccc(CC[C@H]2CNCCN2)nc1	83 to 87 °C
COc1cc2cc(COC(C)=O)c(C(=O)OC3OC(CO)C(O)C(O)C3O)c(-c3ccc4c(c3)OCO4)c2cc1OC (configuration not stated)	127 to 130 °C
COc1ccc(CN2C(=O)C3(COc4cc5c(cc43)OCO5)c3ccccc32)cc1 (configuration not stated)	147 to 148 °C
Cc1cc(O)c2c(c1)C(C)(C)CCC2(C)C	133 to 134 °C
COc1ccc(Nc2ccc(Nc3nc(C)nc4cc(-c5ccccc5)sc34)cc2)cc1	181 to 185 °C
O=C(O)c1cccc(C2Oc3ccccc3C(O)=C2Cc2ccccc2)c1 (configuration not stated)	210 to 212 °C
CC(C)C1(C)NC(c2nccc(O)c2C(=O)O)=NC1=O (configuration not stated)	210 to 211 °C
NC(=O)N(O)Cc1ccco1	128 to 131 °C
NC(=O)C1CCc2sc3ccc(F)cc3c2C1 (configuration not stated)	201 to 202 °C
N#Cc1cccc(-c2nc3sccn3c2-c2ccnc(N[C@@H]3CCCN(S(=O)(=O)c4ccc(Cl)cc4)C3)n2)c1	144 to 146 °C
COc1cc2cc[nH]c2cc1OCCCCl	73 to 75 °C
OCc1cnc2sc3c(n12)CCCC3	182 to 183 °C
Cn1cc(C2=C(c3cn(C)c4ccccc34)C(=O)NC2=O)c2ccccc21	> 300 °C
NC(=O)c1ccc2c(c1)CCCN2CCN1CC=C(c2c[nH]c3cc(F)ccc23)CC1	130 to 133 °C
CN(C)c1ccc(C(=O)c2ccncc2)cc1	122 to 124 °C
Cc1ccc(-c2ccc(NC(=O)OC(C)(C)C)c([N+](=O)[O-])c2)cc1	105 to 108 °C
Fc1cc(Cl)ccc1-n1nc2c(c1Br)CCC2	106 to 110 °C
COCC1CN(c2ccc(OCCCC3(C)OC(COS(=O)(=O)c4ccc(C)cc4)C(COS(=O)(=O)c4ccc(C)cc4)O3)cc2)C(=O)O1 (configuration not stated)	104 °C
COc1ccc(C(=O)n2c3c(c4cc(C)ccc42)CC(C(=O)O)CC3)cc1 (configuration not stated)	172 to 173 °C
CN(C)c1nc(N)nc2nc[nH]c12	254 to 256 °C

----------
This section presents molecules with their documented melting point values.

molecule	melting point
C#CC1(O)CCC2(C)C(CCC3C2CCC2(C)C(OC)CCC32)C1 (stereo unspecified)	62 to 65 °C
Nc1nnc(SCc2ccc(Cl)cc2)s1	162 to 164 °C
CN1C(=O)C(=C2CCN(Cc3ccccc3)CC2)c2ccccc21	101 to 102 °C
CN(C)C(=N[N+](=O)[O-])N(C)Cc1ccc(Cl)nc1	99 to 101 °C
COc1ccc(C(=O)Nc2ccccc2)cc1NS(=O)(=O)c1ccccc1	190 to 194 °C
NC(=O)c1n[nH]c(S(=O)(=O)c2ccccc2)n1	150 to 153 °C
COC(=O)c1[nH]c2cc(Cl)ccc2c1-c1ccc(F)cc1	172 to 183 °C
O=C(CBr)c1ccc(Cl)c(S(=O)(=O)Nc2ccccc2)c1	154 °C
NC(=O)N1C(=O)C(C(=O)c2ccc(Br)s2)c2cc(Cl)ccc21 (stereo unspecified)	228 to 229 °C
O=c1[nH]cc(Br)cc1Nc1ccncn1	150 to 151 °C
COc1ccc(C2C[N+]([O-])=C3CCCCC32)cc1OC (stereo unspecified)	135 to 141 °C

----------
This section presents compounds with their documented melting point values.
measurementLabel: melting point

compound	recordedValue
CC(O)=C(C(=O)OCC(Cl)(Cl)Cl)N1C(=O)C(NC(=O)COc2ccccc2)C1SSc1nc2ccccc2s1 (centres undefined)	129 to 130 °C
C[C@]1(Cn2ccnc2)[C@H](C(=O)O)N2C(=O)C[C@H]2S1(=O)=O	161 °C
Cc1cc(OC(=O)c2ccccc2)c2ccccc2c1OCc1ccccc1	179 to 180 °C
O=C(O)CCSCSCC(C(=O)O)c1cccc(OCc2ccc3ccc(Cl)cc3n2)c1 (centres undefined)	142 °C
CC(C)(O)C(O)c1ccc(C(=O)CCC(=O)/C(=C/C2CCOCC2)c2ccc(S(=O)(=O)C3CC3)cc2)nc1 (centres undefined)	102 to 104 °C
CC(C)/C=c1\[nH]c(=O)/c(=C/c2c[nH]c3ccccc23)[nH]c1=O	> 300 °C
N#Cc1cc(C2=NOC(c3cc(Cl)cc(Cl)c3)(C(F)(F)F)C2)ccc1-n1cccn1 (centres undefined)	169 to 176 °C
COCCc1nc2c(N)nc3ccccc3c2n1CCCCNC(=O)c1ccc(-n2cccc2)cc1	173 to 175 °C
NC(=O)c1nc(Cl)n2c1CN=C(c1ccccc1Cl)c1cc(Cl)ccc1-2	285 to 288 °C
CC(C)(N)c1ccc(-c2nc(Nc3cccc(CCO)c3)ncc2Cl)cc1	184 to 185 °C
Cc1noc(NS(=O)(=O)c2ccccc2-c2ccc(-c3ncco3)cc2Cc2ncc(-c3ccccc3)o2)c1C	120 to 128 °C
Cc1cc(=O)[nH]c(SCc2ccccc2N(C)C)n1	152 to 154 °C
CC(C(N)=S)C(O)(Cn1cncn1)c1ccc(F)cc1F (centres undefined)	164 to 167 °C
COC(=O)c1scc(-c2ccccc2)c1S(N)(=O)=O	172 to 175 °C
CCCCOc1cc(-c2cc3ccccc3[nH]2)ccc1O	163 °C
CC(C)n1nc(-c2nc(C#N)c(C#N)nc2-c2ccccc2)ccc1=O	201 to 202 °C
O=S(=O)(CC1(c2ccccc2)CO1)c1ccccc1 (centres undefined)	89 °C
CC(=O)Nc1ccc(Nc2c(CC3CC4C=CC3C4)cc(C(=O)O)cc2S(=O)(=O)NC(C)=O)cc1 (centres undefined)	270 °C
C[C@@H](n1cnc2cc(N3CCN(c4ccc([N+](=O)[O-])cc4)CC3)ccc2c1=O)[C@](O)(Cn1cncn1)c1ccc(F)cc1F	287 to 289 °C
CC(N)CNC(=O)Nc1ccccc1 (centres undefined)	118 to 120 °C
O=[N+]([O-])C(c1ccccc1)(c1ccccc1)[N+](=O)[O-]	158 °C
Cn1ncc2c1-c1c(Oc3ccc4c(c3)OCO4)sc(C(=O)c3cccnc3)c1CC2	180 to 182 °C
Cc1cccc(-c2cccc(CBr)n2)n1	88 °C
CC(C)CCN1C(=O)C(N)C(=O)N(CC23CC4CC(CC(C4)C2)C3)c2ccccc21 (centres undefined)	218 to 219 °C
CNS(=O)(=O)Cc1ccc2[nH]cc(CCN)c2c1	179 to 181 °C
CN1CCN(c2cccc3ccc(OS(=O)(=O)C(F)(F)F)cc23)CC1	70 to 71 °C
CC1=C(C(=C2SCSCS2)c2ccc(C)cc2)CN(C)O1	89 to 90 °C
CCn1c(=O)c2c(nc(/C=C/c3ccc(OCC(C)=O)c(OC)c3)n2C)n(CC)c1=O	206 °C
O=C(C(CCO)N1CCCC1=O)N1CCOCC1 (centres undefined)	105 to 106 °C
CCCCCCCCCCCCCCCCCC(=O)Nc1ccc(NC(=O)NS(=O)(=O)c2ccc3ccccc3c2)cc1	192 °C
CCOC(=O)c1csc(Nc2nc(C(C)(C)C)c(O)c(C(C)(C)C)n2)n1	204 to 206 °C
CCc1cc(OCc2ccccc2)cc(C(=O)O)c1C(=O)OC	135 to 136 °C
CCN(CC)CCNC(=O)c1cc(Cl)c(N)cc1OCCS(C)=O (centres undefined)	110 to 114 °C
O=C(O)COc1ccc2c(-c3cc([N+](=O)[O-])ccc3F)noc2c1Cl	238 to 240 °C
N#Cc1ccc2cc(CCCc3cc4ccc(C#N)cc4o3)oc2c1	199 to 201 °C
COc1cc2c(c3c1OC(C)(C)C3)C(c1cccc(Nc3cccnc3)c1)=NC(C)(C)C2	204 to 205 °C
CSc1nc(CC2CCN(c3ccc(C(C)(C)C)cc3)CC2)nc(C(=O)NCC(=O)O)c1O	135 to 136 °C
CCCn1nc2c(-c3ccccc3)cccc2c1-c1ccc(OC)cc1	128 to 129 °C
CCCCCCNC(=O)[C@@H]1CCC(=O)N1	95 °C
